Please provide measured % ee (enantiomeric excess of the D-isomer) for the entries that follow.
Assay: Enzyme screens for resolution of racemic N-(acetyl)-4-keto-D,L-proline methyl ester (Example 7, comparative)
Assay type: biochemical
Details: 0.100M racemate; pH 6.0; 5 h; 5.0 to 30 mg/mL enzyme; 25° C.
Description: An aqueous solution (1.0 mL) containing 0.100M racemic N-(acetyl)-4-keto-D,L-proline methyl ester in 0.20M sodium succinate (pH 6.0) was mixed with 5.0 to 30 mg/mL of commercial enzyme preparations (listed in the table below) at 25° C. […]
Give the value, in units of %, as a plain number.

Query: For the molecule shown here, protease, trypsin bovine pancreas: commercial trypsin, source bovine pancreas (protein, UniProt P00760 24-246, looked up) Serine protease 1: IVGGYTCGANTVPYQVSLNSGYHFCGGSLINSQWVVSAAHCYKSGIQVRLGEDNINVVEGNEQFISASKSIVHPSYNSNTLNNDIMLIKLKSAASLNSRVASISLPTSCASAGTQCLISGWGNTKSSGTSYPDVLKCLKAPILSDSSCKSAYPGQITSNMFCAGYLEGGKDSCQGDSGGPVVCSGKLQGIVSWGSGCAQKNKPGVYTKVCNYVSWIKQTIASN , give the reported % ee (enantiomeric excess of the D-isomer).
Result: 0

Query: For the molecule shown here, protease, trypsin porcine pancreas: commercial trypsin, source porcine pancreas (protein, UniProt P00761 9-231, looked up) Trypsin: IVGGYTCAANSIPYQVSLNSGSHFCGGSLINSQWVVSAAHCYKSRIQVRLGEHNIDVLEGNEQFINAAKIITHPNFNGNTLDNDIMLIKLSSPATLNSRVATVSLPRSCAAAGTECLISGWGNTKSSGSSYPSLLQCLKAPVLSDSSCKSSYPGQITGNMICVGFLEGGKDSCQGDSGGPVVCNGQLQGIVSWGYGCAQKNKPGVYTKVCNYVNWIQQTIAAN , give the reported % ee (enantiomeric excess of the D-isomer).
Result: 0

Query: For the molecule shown here, protease, type X: commercial enzyme preparation, source B. thermoproteoliticus rokko (protein, UniProt P00800 233-548, looked up) Thermolysin: ITGTSTVGVGRGVLGDQKNINTTYSTYYYLQDNTRGNGIFTYDAKYRTTLPGSLWADADNQFFASYDAPAVDAHYYAGVTYDYYKNVHNRLSYDGNNAAIRSSVHYSQGYNNAFWNGSQMVYGDGDGQTFIPLSGGIDVVAHELTHAVTDYTAGLIYQNESGAINEAISDIFGTLVEFYANKNPDWEIGEDVYTPGISGDSLRSMSDPAKYGDPDHYSKRYTGTQDNGGVHINSGIINKAAYLISQGGTHYGVSVVGIGRDKLGKIFYRALTQYLTPTSNFSQLRAAAVQSATDLYGSTSQEVASVKQAFDAVGVK , give the reported % ee (enantiomeric excess of the D-isomer).
Result: 0

Query: For the molecule shown here, protease (Chirazyme P1): commercial enzyme preparation, source Bacillus licheniformis (protein, UniProt P00780 106-379, looked up) Subtilisin Carlsberg: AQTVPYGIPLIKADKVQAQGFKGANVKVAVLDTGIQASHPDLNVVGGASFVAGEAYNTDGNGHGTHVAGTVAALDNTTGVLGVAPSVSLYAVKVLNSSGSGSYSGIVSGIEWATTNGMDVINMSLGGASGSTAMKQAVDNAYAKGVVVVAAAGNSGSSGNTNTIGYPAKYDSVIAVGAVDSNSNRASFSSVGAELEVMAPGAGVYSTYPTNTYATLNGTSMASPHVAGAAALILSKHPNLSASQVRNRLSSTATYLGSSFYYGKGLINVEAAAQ , give the reported % ee (enantiomeric excess of the D-isomer).
Result: 37
